test system: LXRb:RXRa (NR concentration 270 nM, RXRa partner concentration 90 nM); experiment: PBM binding z-score (relative to random genomic background probes); higher = stronger binding; sequences stand for … in GC…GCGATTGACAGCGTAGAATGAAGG
Entries and their measured PBM binding z-score follow.
Quantity Kind: PBM binding z-score

{"columns": ["Sequence", "Recorded Result"],
 "data": [
  ["GTTGCTAGGTCAGGTTGGTCAGCTAACGGGTACG", 0.947],
  ["CCGACCGGGGCAGAAAGGTTACCATACCATCCGG", 0.91],
  ["GCGAGCAGGCCATTTGGGTCACTCAATGACGGGC", 0.145],
  ["TTACCAAGGTGAGCTGAGGTCGTTGCTCCAACTC", 0.819],
  ["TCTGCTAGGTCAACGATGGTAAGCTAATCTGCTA", 1.4]
]}
